Each recorded value in this set is attributed to patent US11447481B2.

Give measured melting point for each item. Keep answers brief.

Input: Answer with reported melting point of `O=c1sc(-c2ccccc2)nn1Cc1ccc(-c2noc(C(F)(F)F)n2)cc1`
Output: 111.1 to 114 °C

Input: Answer with reported melting point of `N#Cc1cccn(Cc2ccc(-c3noc(C(F)(F)F)n3)cc2)c1=O`
Output: 178 to 180 °C

Input: Answer with reported melting point of `Cn1nc(Cl)n(-c2ccc(-c3noc(C(F)(F)F)n3)cc2)c1=O`
Output: 161 to 167 °C

Input: Answer with reported melting point of `Cc1ccn(Cc2ccc(-c3noc(C(F)(F)F)n3)cc2)c(=O)c1`
Output: 156 to 158 °C

Input: Answer with reported melting point of `N#Cc1ccc(=O)n(Cc2ccc(-c3noc(C(F)(F)F)n3)c(F)c2F)c1`
Output: 144 to 146 °C

Input: Answer with reported melting point of `O=c1ccc(C(F)(F)F)cn1Cc1ccc(-c2noc(C(F)(F)F)n2)cc1`
Output: 131 to 133 °C

Input: Answer with reported melting point of Cc1ccn(C(C)c2ccc(-c3noc(C(F)(F)F)n3)cc2)c(=O)c1 (stereo not drawn)
Output: 117 to 120 °C

Input: Answer with reported melting point of `Cc1ccc(=O)n(Cc2ccc(-c3noc(C(F)(F)F)n3)cc2)c1`
Output: 174 to 176 °C

Input: Answer with reported melting point of `O=c1ccc(Br)nn1Cc1ccc(-c2noc(C(F)(F)F)n2)cc1`
Output: 106.5 to 107.6 °C
